Recorded measurements of %Inh, one per entry
test system: ULK1; conditions: concentration: 1 μM, replicates: in singlicate; n = 1;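 note: KINOMEscan kinase panel screen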
Respond with the bare value in %.

Worked cases, answers included:
compound | unit_string | measurement
CC(=O)c1c(C)c2cnc(Nc3ccn(C)n3)nc2n(C2CCCC2)c1=O | % | 0
CNC(=O)c1ccc(C)c(-n2c(C)cc(OCc3ccc(F)cc3F)c(Br)c2=O)c1 | % | 0
COC(=O)C(NC(=O)NC1CCN(c2ccnc(Nc3ccc(F)cc3)n2)C1)c1ccccc1 (stereo not drawn) [GSK1379712] | % | 0
COc1ccc(Nc2nccc(N3CCC(NC(=O)C(C)c4ccc(Cl)cc4)CC3)n2)cc1 (stereo not drawn) [GSK1379812] | % | 0
CCCCc1nn2ncccc2c1-c1ccnc(NC2CC2)n1 [GW684374] | % | 0

Item under review: CNc1nc(-c2ccc3c(N)n[nH]c3c2)cc(N2C[C@@H](C(=O)NC3CCCCC3)OC[C@H]2C)n1 [GSK2375584] . Reported %Inh?
0
